Numbers sourced from the Immune Epitope Database (IEDB).

# System: HLA-B*40:01
# Procedure Text: IEDB peptide-MHC binding, purified MHC/direct/fluorescence; filed as Kd, often an IC50 or EC50 that approximates it; bounds were set here for any values at or beyond the usual limits of such assays
# Applied Conditions: source organism: Escherichia coli O157:H7 str. EC869
pKd: −log10 of the molar value.
Quantity Kind: pKd

ESMMGSTAM yielded pKd of ≤ 4.70

---

# System: HLA-B*15:01
# Procedure Text: IEDB peptide-MHC binding, purified MHC/competitive/fluorescence; filed as Kd, often an IC50 or EC50 that approximates it; bounds were set here for any values at or beyond the usual limits of such assays
# Applied Conditions: source organism: Escherichia coli O139:H28 str. E24377A
Quantity Kind: Kd

AENHFLVGL yielded Kd of ≥ 20 µM

---

# System: HLA-B*15:17
# Procedure Text: IEDB peptide-MHC binding, purified MHC/competitive/fluorescence; filed as Kd, often an IC50 or EC50 that approximates it; bounds were set here for any values at or beyond the usual limits of such assays
# Applied Conditions: source organism: Salmonella enterica subsp. enterica serovar Typhi
Examples of sequences with documented Kd follow.

Residue Sequence	Recorded Value
NTDEIPELI	≥ 20000 nM

Bench note, HLA-B*15:17: MSAIVSCRY , Kd reads 2.4 nM

---

# System: HLA-A*30:01
# Procedure Text: IEDB peptide-MHC binding, purified MHC/competitive/fluorescence; filed as Kd, often an IC50 or EC50 that approximates it; bounds were set here for any values at or beyond the usual limits of such assays
# Applied Conditions: source organism: Salmonella enterica subsp. enterica serovar Typhi
Quantity Kind: pKd
Reminder that pKd is minus the log10 of a molar concentration.

MSAIVSCRY yielded pKd of 5.85

---

# System: HLA-A*26:01
# Procedure Text: IEDB peptide-MHC binding, purified MHC/competitive/fluorescence; filed as Kd, often an IC50 or EC50 that approximates it; bounds were set here for any values at or beyond the usual limits of such assays
# Applied Conditions: source organism: Escherichia coli str. K-12 substr. MG1655
Quantity Kind: Kd

ALKANNKVY yielded Kd of ≥ 20 µM

---

# System: HLA-B*40:02
# Procedure Text: IEDB peptide-MHC binding, purified MHC/competitive/radioactivity; filed as Kd, often an IC50 or EC50 that approximates it; bounds were set here for any values at or beyond the usual limits of such assays
# Applied Conditions: source organism: Mammarenavirus brazilense
Quantity Kind: pKd
Reminder that pKd is minus the log10 of a molar concentration.

CEMNHVNSM yielded pKd of 7.17

---

# System: HLA-A*31:01
# Procedure Text: IEDB peptide-MHC binding, purified MHC/competitive/fluorescence; filed as Kd, often an IC50 or EC50 that approximates it; bounds were set here for any values at or beyond the usual limits of such assays
# Applied Conditions: source organism: Influenza A virus
Quantity Kind: Kd (nM)
Kindly answer with a numeric value in nM, unit omitted.

LIAPRGYFK yielded Kd of 33.9

---

# System: HLA-B*58:01
# Procedure Text: IEDB peptide-MHC binding, purified MHC/direct/fluorescence; filed as Kd, often an IC50 or EC50 that approximates it; bounds were set here for any values at or beyond the usual limits of such assays
# Applied Conditions: source organism: Marburg virus - Musoke, Kenya, 1980
Quantity Kind: Kd

KLDFIRNTK yielded Kd of ≥ 20 µM

---

# System: HLA-A*11:01
# Procedure Text: IEDB peptide-MHC binding, purified MHC/competitive/fluorescence; bounds were set here for any values at or beyond the usual limits of such assays
# Applied Conditions: source organism: Vaccinia virus WR
pIC50: −log10 of the molar value.
Quantity Kind: pIC50

Residue Sequence	pIC50
VLDQIDKNK	≤ 4.15

IRANNNRLP yielded pIC50 of ≤ 3.68

KSINVEYRF yielded pIC50 of ≤ 3.77

---

# System: HLA-A*01:01
# Procedure Text: IEDB peptide-MHC binding, purified MHC/direct/fluorescence; filed as Kd, often an IC50 or EC50 that approximates it; bounds were set here for any values at or beyond the usual limits of such assays
# Applied Conditions: source organism: Pseudomonas aeruginosa UCBPP-PA14
Quantity Kind: Kd

Residue Sequence	Kd
RDYRTISPR	≥ 20 µM

Proceeding to the next sequence to report its Kd.
ANPGRVKDW yielded Kd of ≥ 20 µM

---

# System: HLA-B*58:01
# Procedure Text: IEDB peptide-MHC binding, purified MHC/competitive/fluorescence; filed as Kd, often an IC50 or EC50 that approximates it; bounds were set here for any values at or beyond the usual limits of such assays
# Applied Conditions: source organism: Yersinia pestis Nepal516
Quantity Kind: Kd (nM)
Kindly answer with a numeric value in nM, unit omitted.

MTSELAALI yielded Kd of 22.5

---

# System: HLA-A*30:01
# Procedure Text: IEDB peptide-MHC binding, purified MHC/direct/fluorescence; filed as Kd, often an IC50 or EC50 that approximates it; bounds were set here for any values at or beyond the usual limits of such assays
# Applied Conditions: source organism: Salmonella enterica subsp. enterica serovar Typhi
Quantity Kind: pKd
Reminder that pKd is minus the log10 of a molar concentration.

EHFYWGSVF yielded pKd of 4.72

---

# System: HLA-A*26:01
# Procedure Text: IEDB peptide-MHC binding, purified MHC/competitive/fluorescence; filed as Kd, often an IC50 or EC50 that approximates it; bounds were set here for any values at or beyond the usual limits of such assays
# Applied Conditions: source organism: Cryptosporidium parvum Iowa II
Quantity Kind: Kd

FTWQHNYYL yielded Kd of ≥ 20 µM

---

# System: HLA-B*35:01
# Procedure Text: IEDB peptide-MHC binding, purified MHC/direct/fluorescence; filed as Kd, often an IC50 or EC50 that approximates it; bounds were set here for any values at or beyond the usual limits of such assays
# Applied Conditions: source organism: Pasteurella multocida
Quantity Kind: Kd (nM)
Kindly answer with a numeric value in nM, unit omitted.

Bench note, HLA-B*35:01: SQLEMCEKY , Kd reads 121

---

Examples of sequences with documented Kd follow.
# System: HLA-A*33:01
# Procedure Text: IEDB peptide-MHC binding, purified MHC/competitive/radioactivity; filed as Kd, often an IC50 or EC50 that approximates it; bounds were set here for any values at or beyond the usual limits of such assays
# Applied Conditions: source organism: Mammarenavirus machupoense

Recorded Kd, per entry:
Residue Sequence	Quantity Kind	Recorded Value
STSLSEEFFH	Kd	≥ 64.8 µM
LNNSFYYMK	Kd	≥ 77.7 µM
SIQKNTIFK	Kd	≥ 22.9 µM
SSFDYCGMDH	Kd	≥ 48.9 µM

Proceeding to the next sequence to report its Kd.
YCSTNHLSK yielded Kd of ≥ 77.7 µM

---

# System: HLA-B*35:01
# Procedure Text: IEDB peptide-MHC binding, purified MHC/competitive/radioactivity; filed as Kd, often an IC50 or EC50 that approximates it; bounds were set here for any values at or beyond the usual limits of such assays
# Applied Conditions: source organism: Dengue virus 1 Brazil/97-11/1997
Quantity Kind: pKd
Reminder that pKd is minus the log10 of a molar concentration.

VPNYNMIIM yielded pKd of 7.87

---

# System: HLA-A*11:01
# Procedure Text: IEDB peptide-MHC binding, purified MHC/direct/fluorescence; filed as Kd, often an IC50 or EC50 that approximates it; bounds were set here for any values at or beyond the usual limits of such assays
# Applied Conditions: source organism: Vibrio parahaemolyticus
pKd: −log10 of the molar value.
Quantity Kind: pKd

YREAGIPVL yielded pKd of ≤ 4.70

---

# System: HLA-A*29:02
# Procedure Text: IEDB peptide-MHC binding, purified MHC/competitive/fluorescence; filed as Kd, often an IC50 or EC50 that approximates it; bounds were set here for any values at or beyond the usual limits of such assays
# Applied Conditions: source organism: Xenopus laevis
Quantity Kind: pKd
Reminder that pKd is minus the log10 of a molar concentration.

GSASPTPPY yielded pKd of 8.43

---

# System: HLA-A*33:01
# Procedure Text: IEDB peptide-MHC binding, purified MHC/competitive/radioactivity; filed as Kd, often an IC50 or EC50 that approximates it; bounds were set here for any values at or beyond the usual limits of such assays
# Applied Conditions: source organism: Dengue virus 2 Jamaica/1409/1983
Quantity Kind: pKd
Reminder that pKd is minus the log10 of a molar concentration.

Recorded pKd, per entry:
Residue Sequence	Recorded Value
YYCGGLKNVR	8.51
SAKLRWFVER	7.33
WYLWEVKKQR	7.40
MYFHRRDLR	8.25

YTIGTTHFQR yielded pKd of 8.21

TVCYVLTGR yielded pKd of 8.80

---

# System: HLA-A*68:02
# Procedure Text: IEDB peptide-MHC binding, purified MHC/competitive/radioactivity; filed as Kd, often an IC50 or EC50 that approximates it; bounds were set here for any values at or beyond the usual limits of such assays
# Applied Conditions: source organism: Homo sapiens
Examples of sequences with documented Kd follow.
Kindly answer with a numeric value in µM, unit omitted.

Recorded Kd, per entry:
Residue Sequence	Kd / µM
DLTDYLMKI	3.72
QLKDKADFCI	13.4

Proceeding to the next sequence to report its Kd.
Bench note, HLA-A*68:02: ELQAALARV , Kd reads 0.00206
